The measured values listed here are drawn from the supplement of paper PMC9112550.

Test system: Escherichia coli TOP10
Experiment: shrunken log2 fold change of peptide-encoding DNA abundance (4.5 h post-induction vs induction); higher = less antimicrobial activity (less host growth inhibition)
Conditions: time post-induction: 4.5 h; library: site-saturation at positions 5, 18, 19, 20
Documented shrunken log2 fold change across a set of sequences
Just the number.

Below, each entry is followed by its recorded shrunken log2 fold change result.
PRIMARY SEQUENCE: RRIRLRPPRLPRPRPRPFDCPRP
ENDPOINT RESULT: 0.00355
//
PRIMARY SEQUENCE: RRIRKRPPRLPRPRPRPNPPPRP
ENDPOINT RESULT: 0.0342
//
PRIMARY SEQUENCE: RRIRRRPPRLPRPRPRPKLWPRP
ENDPOINT RESULT: 0.701
//
PRIMARY SEQUENCE: RRIRGRPPRLPRPRPRPHVVPRP
ENDPOINT RESULT: 0.1

Ask: # returns recorded shrunken log2 fold change (system: Escherichia coli TOP10) for RRIRDRPPRLPRPRPRPMMVPRP
Result: 0.0541

Ask: Next entry: RRIRYRPPRLPRPRPRPRVNPRP
Result: 0.00364

Ask: Also RRIRFRPPRLPRPRPRPWHKPRP ?
Result: -0.413

Ask: Also, RRIRHRPPRLPRPRPRPRNTPRP please.
Result: -0.229

====

System: Escherichia coli TOP10
Test: shrunken log2 fold change of peptide-encoding DNA abundance (4.5 h post-induction vs induction); higher = less antimicrobial activity (less host growth inhibition)
Settings: time post-induction: 4.5 h; library: site-saturation at positions 5, 18, 19, 20
Listed here are sequences together with their documented shrunken log2 fold change.
Lab note: write the figure by itself, no unit.

Take a look at these entries with their results.
PRIMARY SEQUENCE: RRIRLRPPRLPRPRPRPGHVPRP
ENDPOINT RESULT: 0.0522
//
PRIMARY SEQUENCE: RRIRMRPPRLPRPRPRPFPNPRP
ENDPOINT RESULT: -0.288
//
PRIMARY SEQUENCE: RRIRDRPPRLPRPRPRPQKPPRP
ENDPOINT RESULT: -0.00349
//
PRIMARY SEQUENCE: RRIRVRPPRLPRPRPRPECWPRP
ENDPOINT RESULT: 0.573
//
PRIMARY SEQUENCE: RRIRKRPPRLPRPRPRPGMSPRP
ENDPOINT RESULT: 0.361
//
PRIMARY SEQUENCE: RRIRVRPPRLPRPRPRPIIRPRP
ENDPOINT RESULT: -0.199
//
PRIMARY SEQUENCE: RRIRQRPPRLPRPRPRPLMGPRP
ENDPOINT RESULT: -0.121
//
PRIMARY SEQUENCE: RRIRVRPPRLPRPRPRPYRVPRP
ENDPOINT RESULT: -0.0295

Ask: Query (sequence): RRIRGRPPRLPRPRPRPTHYPRP ; field requested: shrunken log2 fold change
Result: 0.525

Ask: Also RRIRPRPPRLPRPRPRPYLMPRP ?
Result: -0.58

====

Measured shrunken log2 fold change values are reported for all entries that follow.
System: Escherichia coli TOP10
Assay: shrunken log2 fold change of peptide-encoding DNA abundance (4.5 h post-induction vs induction); higher = less antimicrobial activity (less host growth inhibition)
Conditions: time post-induction: 4.5 h; library: site-saturation at positions 5, 18, 19, 20
Give a plain numeric answer without units written out.

Known results for sequences:
PRIMARY SEQUENCE: RRIRRRPPRLPRPRPRPEPVPRP
ENDPOINT RESULT: 0.367

PRIMARY SEQUENCE: RRIRSRPPRLPRPRPRPHKCPRP
ENDPOINT RESULT: 0.00997

PRIMARY SEQUENCE: RRIRYRPPRLPRPRPRPIWRPRP
ENDPOINT RESULT: 0.0429

PRIMARY SEQUENCE: RRIRERPPRLPRPRPRPIRYPRP
ENDPOINT RESULT: -0.00369

PRIMARY SEQUENCE: RRIRFRPPRLPRPRPRPEPHPRP
ENDPOINT RESULT: 0.258

PRIMARY SEQUENCE: RRIRLRPPRLPRPRPRPMDTPRP
ENDPOINT RESULT: -0.323

PRIMARY SEQUENCE: RRIRTRPPRLPRPRPRPQPPPRP
ENDPOINT RESULT: 0.357

Ask: Reported shrunken log2 fold change for Escherichia coli TOP10, given RRIRSRPPRLPRPRPRPNETPRP ?
Result: -0.198

====

System: Escherichia coli TOP10
Assay: shrunken log2 fold change of peptide-encoding DNA abundance (4.5 h post-induction vs induction); higher = less antimicrobial activity (less host growth inhibition)
Details: time post-induction: 4.5 h; library: site-saturation at positions 5, 18, 19, 20
READOUT NAME: shrunken log2 fold change
Kindly provide the number alone.

PRIMARY SEQUENCE: RRIRSRPPRLPRPRPRPVRTPRP
ENDPOINT RESULT: -0.0647
//
PRIMARY SEQUENCE: RRIRKRPPRLPRPRPRPDFPPRP
ENDPOINT RESULT: 0.416

Ask: Fill blank: measured shrunken log2 fold change of the sequence RRIRMRPPRLPRPRPRPEPGPRP is ____.
Result: 2.73

Ask: Thanks! And RRIRARPPRLPRPRPRPWVGPRP ?
Result: 0.271

Ask: Moving on to RRIRNRPPRLPRPRPRPLWNPRP
Result: -0.511

Ask: What would you report for RRIRSRPPRLPRPRPRPYGIPRP ?
Result: 0.104

Ask: Now this one: RRIRWRPPRLPRPRPRPDYRPRP
Result: -0.0424

Ask: Proceed to RRIRLRPPRLPRPRPRPALVPRP
Result: -0.0636

Ask: How about RRIRHRPPRLPRPRPRPFAFPRP ?
Result: -0.121

Ask: And what about the sequence RRIRGRPPRLPRPRPRPSEMPRP ?
Result: 0.4

Ask: Now the same for RRIRCRPPRLPRPRPRPDELPRP
Result: -0.044

Ask: And the next one, RRIRSRPPRLPRPRPRPMNRPRP ?
Result: -0.378

====

Test system: Escherichia coli TOP10
Experiment: shrunken log2 fold change of peptide-encoding DNA abundance (4.5 h post-induction vs induction); higher = less antimicrobial activity (less host growth inhibition)
Settings: time post-induction: 4.5 h; library: site-saturation at positions 5, 18, 19, 20
Entries are grouped by shrunken log2 fold change into these classes: low end: < -0.2; middle: ≥ -0.2 and < 0.03; high end: ≥ 0.03

Field: example entries. Status: answers known.
PRIMARY SEQUENCE: RRIRFRPPRLPRPRPRPEYIPRP
CATEGORY LABEL: middle
--
PRIMARY SEQUENCE: RRIRSRPPRLPRPRPRPCHIPRP
CATEGORY LABEL: low end
--
PRIMARY SEQUENCE: RRIRLRPPRLPRPRPRPSCPPRP
CATEGORY LABEL: middle
--
PRIMARY SEQUENCE: RRIRQRPPRLPRPRPRPMWCPRP
CATEGORY LABEL: low end
--
PRIMARY SEQUENCE: RRIRFRPPRLPRPRPRPSAHPRP
CATEGORY LABEL: low end

Ask: Which of the defined bands does the recorded shrunken log2 fold change of RRIRVRPPRLPRPRPRPVCWPRP sit within?
Result: high end

Ask: Please answer likewise for RRIRIRPPRLPRPRPRPNQRPRP
Result: middle

Ask: Now consider RRIRARPPRLPRPRPRPWRTPRP and answer again.
Result: high end

Ask: Then this sequence: RRIRTRPPRLPRPRPRPTKCPRP
Result: middle

Ask: Moving on to RRIRHRPPRLPRPRPRPWGAPRP
Result: middle

Ask: And RRIRERPPRLPRPRPRPRMKPRP ?
Result: low end

Ask: Repeat with RRIRLRPPRLPRPRPRPVCIPRP
Result: low end

Ask: Subsequent entry: RRIRPRPPRLPRPRPRPVWWPRP
Result: high end

Ask: Proceed to RRIRKRPPRLPRPRPRPVCVPRP
Result: high end

====

Test system: Escherichia coli TOP10;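 further: peptides expressed intracellularly from a pBAD plasmid library in pooled LB shake-flask culture, induced with 0.3% L-arabinose, DNA abundance read by NGS, three biological replicates, DESeq2 with apeglm shrinkage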
Assay: shrunken log2 fold change of peptide-encoding DNA abundance (4.5 h post-induction vs induction); higher = less antimicrobial activity (less host growth inhibition)
Conditions: time post-induction: 4.5 h; library: site-saturation at positions 5, 18, 19, 20
Label scheme for shrunken log2 fold change: lower than -0.01 is 0, -0.01 and above is 1.

Worked cases, answers included:
PRIMARY SEQUENCE: RRIRGRPPRLPRPRPRPFDMPRP
CATEGORY LABEL: 1

PRIMARY SEQUENCE: RRIRVRPPRLPRPRPRPCDGPRP
CATEGORY LABEL: 1

PRIMARY SEQUENCE: RRIRHRPPRLPRPRPRPTEGPRP
CATEGORY LABEL: 1

PRIMARY SEQUENCE: RRIRDRPPRLPRPRPRPHHHPRP
CATEGORY LABEL: 0

PRIMARY SEQUENCE: RRIRQRPPRLPRPRPRPTLNPRP
CATEGORY LABEL: 1

PRIMARY SEQUENCE: RRIRWRPPRLPRPRPRPDTQPRP
CATEGORY LABEL: 0

Ask: Please tell me: is the sequence RRIRMRPPRLPRPRPRPQCFPRP at or over -0.01 in terms of shrunken log2 fold change?
Result: 1

Ask: Subsequent entry: RRIRTRPPRLPRPRPRPGPEPRP
Result: 1

Ask: Also need RRIRWRPPRLPRPRPRPVESPRP , thanks.
Result: 1
